- Test system: HIV-1 CI#17 clinical isolate (clade B)
- procedure_summary: HIV-1 CI#17 infection of PBMCs, p24
- Type: cell-based
- reported_conditions: PBMC, average 2 donors
measured_quantity: IC90 (nM)
Please respond with the number in nM and leave the unit unwritten.

Entry 283B6: anti-CXCR4 Nanobody, SEQ ID NO: 10 (protein, Nanobody Sequence) VHH: EVQLVASGGGLVQAGGSLRLSCAVSGTTFSVATLGWYRQAPGQQRALVADISSGGSTNYADSVRGRFTISRDNAKNLAYLQMNSLKPEDTAVYYCNARTSGWRTRSNYWGQGTQVTVSS needs its IC90 filled in; supply it.
9.9

Entry 281E10: anti-CXCR4 Nanobody, SEQ ID NO: 6 (protein, Nanobody Sequence) VHH: EVQLVESGGGLVQAGGSLRLSCKASGGTFNNYAMGWFRRAPGKEREFVAAITRSGVRSGVSAIYGDSVKDRFTISRDNVKNTLYLQMNTLKPEDTAVYTCAASAIGSGALRRFEYDYSGQGTQVTVSS needs its IC90 filled in; supply it.
8.1

Just for reference, patent US10273305B2 is where these values come from.
